test system: K98450-129-R-PDC multicell spheroids, viability; assay: Anticancer human tumor K98450-129-R-PDC patient-derived colon adenocarcinoma cell line growth inhibition [PI3K]; conditions: second compound 0.0316 µM; first compound 10 µM; stronger effect = lower value
reported-metric: viability, T/C

response.value for CC1(C)CCC(CN2CCN(c3ccc(C(=O)NS(=O)(=O)c4ccc(NCC5CCOCC5)c([N+](=O)[O-])c4)c(Oc4cnc5[nH]ccc5c4)c3)CC2)=C(c2ccc(Cl)cc2)C1 + CC(Nc1ncnc2nc[nH]c12)c1cc2cccc(Cl)c2c(=O)n1-c1ccccc1 (field: viability, T/C) = 6.25%

Kindly note the recorded viability, T/C for C#Cc1c(F)ccc2cc(O)cc(-c3ncc4c(N5CC6CCC(C5)N6)nc(OCC56CCCN5CC(F)C6)nc4c3F)c12 (stereo unspecified) + COc1c(OCCCN2CCOCC2)ccc2c3n(c(=NC(=O)c4cnc(N)nc4)nc12)CCN3 , which is 74.3%

Reported viability, T/C of CC1(C)CCC(Nc2ncc(C(F)(F)F)c(-c3c[nH]c4c(P(C)(C)=O)c(C#N)ccc34)n2)CN1 (stereo unspecified) + CC(Nc1ccc2c(c1)OCCn1cc(N3C(=O)OCC3C(F)F)nc1-2)C(N)=O : 65.5%

###

tested on: K98450-129-R-PDC multicell spheroids, viability; experiment: Anticancer human tumor K98450-129-R-PDC cell line growth inhibition [PI3K]; details: second compound 3.16 µM; first compound 1 µM; stronger effect = lower value;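 note: spheroids exposed to agents for seven days before read-out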
// viability, T/C lookup, one value per entry
Give the quantity in %, number only.

Record excerpt, results attached:
GET /value?item= CC(C)NCC(C(=O)N1CCN(c2ncnc3c2C(C)CC3O)CC1)c1ccc(Cl)cc1 (stereo not drawn) + CC(Nc1ncnc2nc[nH]c12)c1cc2cccc(Cl)c2c(=O)n1-c1ccccc1 &field=viability, T/C returns 99.2

The molecule CCCS(=O)(=O)Nc1ccc(F)c(C(=O)c2c[nH]c3ncc(-c4ccc(Cl)cc4)cc23)c1F + CC(Nc1ncnc2nc[nH]c12)c1cc2cccc(Cl)c2c(=O)n1-c1ccccc1 showed viability, T/C equal to 112

Next:
Recorded result, CCN1CCN(Cc2ccc(Nc3ncc(F)c(-c4cc(F)c5nc(C)n(C(C)C)c5c4)n3)nc2)CC1 + Cc1nc(NC(=O)N2CCCC2C(N)=O)sc1-c1ccnc(C(C)(C)C(F)(F)F)c1 , viability, T/C: 83.5

###

tested on: K98450-129-R-PDC multicell spheroids, viability; experiment: Anticancer human tumor K98450-129-R-PDC cell line growth inhibition [PI3K]; conditions: second compound 0.00316 µM; first compound 0.0316 µM; stronger effect = lower value;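 note: spheroids exposed to agents for seven days before read-out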
reported-metric: viability, T/C (%)
# unit: % | format: bare number

Check out these entries, answers already filled in.
GET /value?item= CNC(=O)c1ccc(N2C(=S)N(c3ccc(C#N)c(C(F)(F)F)c3)C(=O)C2(C)C)cc1F + COc1c(OCCCN2CCOCC2)ccc2c3n(c(=NC(=O)c4cnc(N)nc4)nc12)CCN3 &field=viability, T/C returns 108

Record summary for C#Cc1c(F)ccc2cc(O)cc(-c3ncc4c(N5CC6CCC(C5)N6)nc(OCC56CCCN5CC(F)C6)nc4c3F)c12 (stereo unspecified) + CC(Nc1ccc2c(c1)OCCn1cc(N3C(=O)OCC3C(F)F)nc1-2)C(N)=O : reported viability, T/C = 116

Per the records, this molecule ( Cn1ncnc1[C@H]1c2n[nH]c(=O)c3cc(F)cc(c23)N[C@@H]1c1ccc(F)cc1 + COc1c(OCCCN2CCOCC2)ccc2c3n(c(=NC(=O)c4cnc(N)nc4)nc12)CCN3 ) has viability, T/C equal to 100

Next:
Input CC(C)n1nc(-c2ccc3oc(N)nc3c2)c2c(N)ncnc21 + COc1c(OCCCN2CCOCC2)ccc2c3n(c(=NC(=O)c4cnc(N)nc4)nc12)CCN3 . Output viability, T/C: 94.1

// viability, T/C value for CCN1CCN(Cc2ccc(Nc3ncc(F)c(-c4cc(F)c5nc(C)n(C(C)C)c5c4)n3)nc2)CC1 + CC(Nc1ccc2c(c1)OCCn1cc(N3C(=O)OCC3C(F)F)nc1-2)C(N)=O : 104

The molecule listed as CCCS(=O)(=O)Nc1ccc(F)c(C(=O)c2c[nH]c3ncc(-c4ccc(Cl)cc4)cc23)c1F + CC(Nc1ccc2c(c1)OCCn1cc(N3C(=O)OCC3C(F)F)nc1-2)C(N)=O shows viability, T/C equal to 113

molecule C[C@@H](NC(=O)c1ncnc(N)c1Cl)c1ncc(C(=O)Nc2cc(C(F)(F)F)c(Cl)cn2)s1 + CC(Nc1ccc2c(c1)OCCn1cc(N3C(=O)OCC3C(F)F)nc1-2)C(N)=O , viability, T/C observed: 111

The molecule identified as CC(Cn1ccc(-c2ccc(C#N)c(Cl)c2)n1)NC(=O)c1cc(C(C)O)[nH]n1 (stereo unspecified) + COc1c(OCCCN2CCOCC2)ccc2c3n(c(=NC(=O)c4cnc(N)nc4)nc12)CCN3 registered its viability, T/C at 102

CC(C)n1nc(-c2ccc3oc(N)nc3c2)c2c(N)ncnc21 + CC(Nc1ccc2c(c1)OCCn1cc(N3C(=O)OCC3C(F)F)nc1-2)C(N)=O has a reported viability, T/C of 90.3

The value of viability, T/C measured for the molecule CCN1CCN(Cc2ccc(Nc3ncc(F)c(-c4cc(F)c5nc(C)n(C(C)C)c5c4)n3)nc2)CC1 + COc1c(OCCCN2CCOCC2)ccc2c3n(c(=NC(=O)c4cnc(N)nc4)nc12)CCN3 turned out to be 88.9

viability, T/C recorded for this molecule, CC(=O)c1c(C)c2cnc(Nc3ccc(N4CCNCC4)cn3)nc2n(C2CCCC2)c1=O + CC(Nc1ccc2c(c1)OCCn1cc(N3C(=O)OCC3C(F)F)nc1-2)C(N)=O , is 99.9
